Target sequence: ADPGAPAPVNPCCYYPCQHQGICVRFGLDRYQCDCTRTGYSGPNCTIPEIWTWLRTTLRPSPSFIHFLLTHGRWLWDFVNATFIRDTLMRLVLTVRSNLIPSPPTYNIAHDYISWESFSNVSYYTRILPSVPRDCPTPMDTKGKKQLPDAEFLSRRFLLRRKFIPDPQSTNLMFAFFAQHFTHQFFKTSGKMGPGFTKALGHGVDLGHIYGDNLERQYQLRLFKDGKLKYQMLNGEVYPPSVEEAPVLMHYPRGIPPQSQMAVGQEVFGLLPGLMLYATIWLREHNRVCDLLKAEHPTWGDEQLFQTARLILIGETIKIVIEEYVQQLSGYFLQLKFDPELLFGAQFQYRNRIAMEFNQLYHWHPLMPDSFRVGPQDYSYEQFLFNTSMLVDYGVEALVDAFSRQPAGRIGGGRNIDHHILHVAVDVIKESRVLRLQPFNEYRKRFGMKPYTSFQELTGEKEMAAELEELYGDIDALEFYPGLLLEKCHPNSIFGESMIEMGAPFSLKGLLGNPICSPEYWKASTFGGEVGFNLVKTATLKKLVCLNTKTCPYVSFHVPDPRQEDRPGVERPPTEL
Assign labels as follows, please: y for IC50 below 90 µM; n for IC50 equal to or exceeding 90 µM.

Example entries begin here.
{"compound": "Cc1c2c(OCC(=O)N/N=C/c3ccccc3)nn(C)c(=O)c2c(C)n1-c1cccc(Cl)c1 [Compound 5c]", "label class": "n"}
{"compound": "CCCCn1c(C)c2c(OCC(=O)N/N=C/c3ccccc3)nn(C)c(=O)c2c1C [Compound 5a]", "label class": "y"}
{"compound": "Cc1c2c(OCC(=O)N/N=C/c3ccccc3O)nn(C)c(=O)c2c(C)n1-c1cccc(Cl)c1 [Compound 6c]", "label class": "y"}
{"compound": "Cc1c2c(OCC(=O)N/N=C/c3ccccc3O)nn(C)c(=O)c2c(C)n1-c1ccccc1 [Compound 6b]", "label class": "n"}

Let us examine a further case.
Ask: Lab log: compare recorded IC50 with 90 µM; is it strictly lower for CCCCn1c(C)c2c(OCC(=O)N/N=C/c3ccc(C)cc3)nn(C)c(=O)c2c1C [Compound 7a] ?
Reply: n
